- Assay Summary: Solubility in water at 20° C. of the iodine compounds
- Test Parameters: % means % by weight
Experimental Readout: Solubility in water (20° C.) (%)
Enter your answer as a number in %; do not include the unit.

Inquiry: Name the recorded Solubility in water (20° C.) for CC(C)(I)C(=O)O [Example 1, 2-Iodo-2-methylpropionic acid] .
Reply text: 1.9

Inquiry: Name the recorded Solubility in water (20° C.) for CC(C)(I)C(=O)OCCO [Example 3, 2-Hydroxyethyl 2-iodo-2-methylpropionate] .
Reply text: 3.2

Inquiry: Name the recorded Solubility in water (20° C.) for CCOC(=O)C(C)I (centres unmarked) [Reference Example 4, Ethyl 2-iodopropionate, reference compound] .
Reply text: 0.2

Inquiry: Name the recorded Solubility in water (20° C.) for O=C(O)C(I)c1ccccc1 (centres unmarked) [Reference Example 1, 2-Iodo-2-phenylacetic acid, reference compound] .
Reply text: 0.1

Inquiry: Name the recorded Solubility in water (20° C.) for CC(I)C(N)=O (centres unmarked) [Example 2, 2-Iodopropionamide] .
Reply text: 1.2
